# System: Klebsiella pneumoniae
# Method: Minimum inhibition concentration in vitro determined against Klebsiella pneumoniae 8045
# Assay type: functional
Reported values of MIC for individual entries

Measured MIC, CCn1cc(C(=O)O)c(=O)c2cc(F)c(N3CCNCC3)cc21 [NORFLOXACIN] : 0.1 µg/mL

# MIC of "O=C(O)c1cn(-c2ccc(F)cc2)c2cc(N3CCCNCC3)c(F)cc2c1=O" = 0.1 µg/mL

// recorded MIC for "Cc1cccc(C)c1-n1cc(C(=O)O)c(=O)c2cc(F)c(N3CCN(C)CC3)cc21" : > 100 µg/mL

The recorded MIC for entry NC1CCN(c2cc3c(cc2F)c(=O)c(C(=O)O)cn3-c2ccc(F)cc2)C1 (centres undefined) equals 0.02 µg/mL

Form field MIC, entry "CN1CCN(c2cc3c(cc2F)c(=O)c(C(=O)O)cn3-c2ccccc2F)CC1" : 0.39 µg/mL

Field MIC (entry "CCCCN1CCN(c2cc3c(cc2F)c(=O)c(C(=O)O)cn3-c2ccc(F)cc2)CC1" ) reads 0.39 µg/mL

***
MIC reported for this compound "O=C1CN(c2cc3c(cc2F)c(=O)c(C(=O)O)cn3-c2ccc(F)cc2)CCN1" : 0.39 µg/mL

Given item "CCC(=O)N1CCN(c2cc3c(cc2F)c(=O)c(C(=O)O)cn3-c2ccc(F)cc2)CC1" , the value recorded as its MIC is 0.78 µg/mL

response.value for O=C(O)c1cn(-c2ccc(F)cc2)c2cc(N3CCNCC3)c(F)cc2c1=O [SARAFLOXACIN] (field: MIC) = 0.02 µg/mL
